# Tgt: Akt2 (Homo sapiens, UniProt P31751)
# Construct: unspecified tag, removed (detagged) (cleaved yes); purchased SignalChem and Proteros (Akt2); Merck Millipore (PDK1) 14-452 (PDK1); none given for Akt2
# Sequence (P31751 whole entry): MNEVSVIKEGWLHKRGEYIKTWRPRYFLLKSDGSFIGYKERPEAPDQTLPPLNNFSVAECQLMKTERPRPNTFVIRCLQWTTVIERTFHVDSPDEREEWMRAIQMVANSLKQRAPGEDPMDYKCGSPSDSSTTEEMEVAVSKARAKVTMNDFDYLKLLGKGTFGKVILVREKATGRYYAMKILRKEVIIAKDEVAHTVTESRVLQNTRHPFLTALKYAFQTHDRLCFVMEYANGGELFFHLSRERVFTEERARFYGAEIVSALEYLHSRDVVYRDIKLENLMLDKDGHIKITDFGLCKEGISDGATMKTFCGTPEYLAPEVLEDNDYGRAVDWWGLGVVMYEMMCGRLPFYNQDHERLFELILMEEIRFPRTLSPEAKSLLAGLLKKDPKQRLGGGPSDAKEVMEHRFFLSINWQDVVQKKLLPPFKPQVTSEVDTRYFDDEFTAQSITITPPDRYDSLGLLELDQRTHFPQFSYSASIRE
# Procedure Details: Akt activation assay (PDK1-mediated activation, LANCE Ultra crosstide TR-FRET), Akt2
# Assay type: biochemical
# Details: read-out: Biological Assay 1 IC50 (nM) Akt2
# Procedure: Biological Assay 1: Akt Activation Assay Addition of a Europium-labelled antibody specific to the phosphopeptide allows energy transfer from the Europium donor to the Ultra Ulight™ acceptor if close enough in proximity. […] 5 μL enzyme in 1×AB was incubated with 2.5 μL test compound. […] Plates read with the EnVision® Multilabel Plate Reader, excitation at 320 nm and emission at 665 nm and 615 nm. Compound IC50 was determined using a 4-parameter equation.
Measurement Label: IC50 (nM)

Some solved cases for reference:
INSERT INTO results (cpd_smiles, measurement_label, result_number) VALUES
  ('CCC(=O)N(C(C)C)[C@H]1CC[C@H](CC(=O)Nc2cc(-c3ccccc3)c(-c3ccc([C@]4(N)C[C@](C)(O)C4)cc3)cn2)CC1', 'IC50', 230),
  ('COC(=O)N(C)[C@H]1CC[C@H](CC(=O)Nc2cc(-c3ccccc3)c(-c3ccc(C4(N)CCC4)cc3)cn2)CC1', 'IC50', 1300),
  ('CCC(=O)N(C)[C@H]1CC[C@H](CC(=O)Nc2cc(-c3ccccc3)c(-c3ccc([C@]4(N)C[C@](C)(O)C4)c(F)c3)nn2)CC1', 'IC50', 3000);

a. CN(C(=O)C1(C)CC1)[C@H]1CC[C@H](CC(=O)Nc2cnc(-c3ccc(C(C)(C)N)cc3)c(-c3ccccc3)c2)CC1
b. CC(C)(C)CC(=O)N[C@H]1CC[C@H](CC(=O)Nc2cnc(-c3ccc(C(C)(C)N)cc3)c(-c3ccccc3)c2)CC1
Ask: Please indicate which has the smaller reported IC50: a , or b . Select an item and report its label.
Result: b
(b: 3500 nM, a: 11000 nM)

I. COC(=O)N(C)[C@H]1CC[C@H](CC(=O)Nc2cc(-c3ccccn3)c(-c3ccc(C4(N)CCC4)cc3)cn2)CC1
II. CC(=O)N(C)[C@H]1CC[C@H](CC(=O)Nc2cc(-c3ccsc3)c(-c3ccc([C@]4(N)C[C@](C)(O)C4)cc3)cn2)CC1
Ask: Please indicate which has the smaller reported IC50: I , or II . The response must carry the label of the picked entry.
Result: II

a. CC(=O)N(C)[C@H]1CC[C@H](CC(=O)Nc2cnc(-c3ccc(C(C)(C)N)cc3)c(-c3ccccc3F)c2)CC1
b. NC1(c2ccc(-c3nnc(NC(=O)C[C@H]4CC[C@H](N5CCOC5=O)CC4)cc3-c3ccccc3)cc2)CCC1
Ask: Which item exceeds the other in IC50, a or b ? Your answer should be the label attached to the chosen record.
Result: a
(a: 2500 nM, b: 150 nM)

P. CC(C)C(=O)N(C)[C@H]1CC[C@H](CC(=O)Nc2cnc(-c3ccc(C(C)(C)N)cc3)c(-c3ccccc3)c2)CC1
Q. COCCN(C)[C@H]1CC[C@H](CC(=O)Nc2cnc(-c3ccc(C4(N)CCC4)cc3)c(-c3ccsc3)c2)CC1
Ask: Between P and Q , whose recorded IC50 is greater? Indicate which entry you chose by stating its label.
Result: P
(P: 7300 nM, Q: 3100 nM)

A. COC(=O)N(C(C)C)[C@H]1CC[C@H](CC(=O)Nc2cnc(-c3ccc(C4(N)CCC4)cc3)c(-c3ccccc3)c2)CC1
B. CC(=O)N(C)[C@H]1CC[C@H](CC(=O)Nc2cc(-c3ccsc3)c(-c3ccc([C@]4(N)C[C@H](F)C4)cc3)nn2)CC1
C. NC1(c2ccc(-c3cnc(NC(=O)C[C@H]4CC[C@H](N5CCOC5=O)CC4)cc3-c3ccccc3)cc2)CC1
Ask: Rank descending by IC50. // list labels; follow requested order
Result: A, B, C
(A: 1500 nM, B: 580 nM, C: 340 nM)

a. CC(C)C(=O)N[C@H]1CC[C@H](CC(=O)Nc2cnc(-c3ccc(C(C)(C)N)cc3)c(-c3ccccc3)c2)CC1
b. COC(=O)N[C@H]1CC[C@H](CC(=O)Nc2cc(-c3ccccc3)c(-c3ccc(C4(N)CC4)c(F)c3)cn2)CC1
c. CCN(C(=O)C1CC1)[C@H]1CC[C@H](CC(=O)Nc2cc(-c3ccccc3)c(-c3ccc([C@]4(N)C[C@](C)(O)C4)cc3)nn2)CC1
d. CN([C@H]1CC[C@H](CC(=O)Nc2cnc(-c3ccc(C4(N)CCC4)cc3)c(-c3ccsc3)c2)CC1)S(C)(=O)=O
Ask: Sort entries by IC50 from minimum to maximum value. Please express your ranking as an ordered list of the labels.
Result: c, d, a, b
(c: 110 nM, d: 1200 nM, a: 3500 nM, b: 11000 nM)

I. CC(C)(N)c1ccc(-c2nnc(NC(=O)C[C@H]3CC[C@H](N4CCOC4=O)CC3)cc2-c2ccccc2)cc1
II. CC(=O)N(C)[C@H]1CC[C@H](CC(=O)Nc2cnc(-c3ccc(C4(N)CCC4)cc3)c(-c3ccccc3)c2)CC1
Ask: Compare IC50: is it lower for I or for II ? Reply with the label of the item you choose.
Result: II
(II: 260 nM, I: 4100 nM)

1. CN(C(=O)C1CC1)[C@H]1CC[C@H](CC(=O)Nc2cc(-c3ccccc3)c(-c3ccc(C(C)(C)N)cc3)nn2)CC1
2. COC(=O)N(C)[C@H]1CC[C@H](CC(=O)Nc2cc(-c3ccccc3)c(-c3ccc(C4(N)CC4)c(F)c3)nn2)CC1
Ask: Which of the two gives a bigger number for IC50: 1 or 2 ? Use the label to indicate which entry you chose.
Result: 2
